# key: entry, value: pIC50
tested.target: Programmed cell death protein 1/Programmed cell death 1 ligand 1 (Homo sapiens, UniProt Q15116+Q9NZQ7)
Sequence (Q15116 whole entry): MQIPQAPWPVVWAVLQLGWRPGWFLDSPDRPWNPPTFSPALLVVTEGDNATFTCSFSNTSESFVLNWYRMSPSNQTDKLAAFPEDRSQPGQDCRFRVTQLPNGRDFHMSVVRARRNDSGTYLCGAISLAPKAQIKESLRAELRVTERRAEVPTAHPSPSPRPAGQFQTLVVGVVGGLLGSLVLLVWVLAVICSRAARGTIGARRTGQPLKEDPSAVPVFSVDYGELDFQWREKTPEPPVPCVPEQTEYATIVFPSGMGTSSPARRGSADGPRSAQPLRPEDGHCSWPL
Sequence (Q9NZQ7 whole entry): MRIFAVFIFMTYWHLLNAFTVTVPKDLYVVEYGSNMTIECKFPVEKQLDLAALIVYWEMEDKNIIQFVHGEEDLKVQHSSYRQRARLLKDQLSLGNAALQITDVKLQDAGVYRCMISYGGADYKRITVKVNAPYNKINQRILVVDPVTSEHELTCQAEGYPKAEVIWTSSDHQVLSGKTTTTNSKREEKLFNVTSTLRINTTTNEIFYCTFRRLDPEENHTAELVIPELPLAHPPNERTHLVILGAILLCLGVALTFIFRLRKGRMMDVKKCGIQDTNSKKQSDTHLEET
test: Inhibition of PD-1/PD-L1 (unknown origin) protein-protein interaction incubated for 105 mins by HTRF assay
The quantity pIC50 is defined as the negative base-10 logarithm of the molar concentration.

Past entries and their recorded results:
compound_smiles=COCCNCc1cnc2c(N3CCc4c(-c5ccc6c(c5)OCCO6)cccc43)ncnc2c1 measurement=7.81
compound_smiles=OCCNCc1cnc2c(N3CCc4c(-c5ccccc5)cccc43)nccc2c1 measurement=7.50
compound_smiles=CC(=O)NCCNCc1ccc2c(N3CCc4c(-c5ccccc5)cccc43)ncnc2c1 measurement=6.90
compound_smiles=O=C(O)[C@H]1CCCN1Cc1cnc2c(N3CCc4c(-c5ccccc5)cccc43)ncnc2c1 measurement=7.64
compound_smiles=OC[C@H]1CCN(Cc2cnc3c(N4CCc5c(-c6ccccc6)cccc54)ncnc3c2)C1 measurement=7.67
compound_smiles=O=C(O)[C@@H]1CCCN1Cc1cnc2c(N3CCc4c(-c5ccccc5)cccc43)ncnc2c1 measurement=8.09
compound_smiles=OCCNCc1cnc2c(N3CCc4c(-c5ccccc5)cccc43)ncnc2c1 measurement=8.17
compound_smiles=O[C@@H]1CCN(Cc2cnc3c(N4CCc5c(-c6ccccc6)cccc54)ncnc3c2)C1 measurement=7.88
compound_smiles=c1ccc(-c2cccc3c2CCN3c2ncnc3cc(CNC4CCOCC4)cnc23)cc1 measurement=7.67
compound_smiles=c1ccc(-c2cccc3c2CCN3c2ncnc3cc(CNC4CCOCC4)ccc23)cc1 measurement=6.97

Item `OCCNCc1ccc2c(N3CCc4c(-c5ccccc5)cccc43)ncnc2c1` has what recorded pIC50?
7.36

====

test: Metabolic stability in human liver microsomes assessed as half life
Assay type: ADME, Microsome
property: half-life (h)
Kindly answer with a numeric value in h, unit omitted.

Some molecules with recorded half-life:
compound_smiles=O=C(c1ncc(CNC2CCOCC2)s1)N1CCc2c(-c3ccc4c(c3)OCCO4)cccc21 property=half-life measurement=0.373
compound_smiles=OCCNCc1cnc2c(N3CCc4c(-c5ccccc5)cccc43)ncnc2c1 property=half-life measurement=3.47
compound_smiles=c1ccc(-c2cccc3c2CCN3c2ncnc3cc(CNC4CCOCC4)cnc23)cc1 property=half-life measurement=1.51
compound_smiles=CC(=O)NCCNCc1cnc2c(N3CCc4c(-c5ccccc5)cccc43)ncnc2c1 property=half-life measurement=1.85

Look at this molecule and give its reported half-life. `CC(C)(CO)NCc1cnc2c(N3CCc4c(-c5ccccc5)cccc43)ncnc2c1`
3.34

====

test: Metabolic stability in rat liver microsomes assessed as half life
Format: ADME, Microsome
property: half-life

I would be grateful if you could share the reported half-life for `CC(C)(CO)NCc1cnc2c(N3CCc4c(-c5ccccc5)cccc43)ncnc2c1` .
2.64 h

====

Known pIC50 of a selection of compounds
tested.target: Programmed cell death protein 1/Programmed cell death 1 ligand 1 (Homo sapiens, UniProt Q15116+Q9NZQ7)
test: Inhibition of PD-1/PD-L1 (unknown origin) protein-protein interaction incubated for 105 mins by HTRF assay
Value format note: pIC50 is -log10 of concentration (mol/L); just state the number.

compound_smiles=NS(=O)(=O)NCCNCc1cnc2c(N3CCc4c(-c5ccccc5)cccc43)ncnc2c1 property=pIC50 measurement=7.68
compound_smiles=COCCNCc1cnc2c(N3CCc4c(-c5ccccc5)cccc43)ncnc2c1 property=pIC50 measurement=7.63
compound_smiles=O=C(c1ncc(CNC2CCOCC2)s1)N1CCc2c(-c3ccc4c(c3)OCCO4)cccc21 property=pIC50 measurement=7.72
compound_smiles=OC[C@@H]1CCN(Cc2cnc3c(N4CCc5c(-c6ccccc6)cccc54)ncnc3c2)C1 property=pIC50 measurement=7.80
compound_smiles=CC(=O)NCCNCc1cnc2c(N3CCc4c(-c5ccccc5)cccc43)ncnc2c1 property=pIC50 measurement=8.41
compound_smiles=CC(C)(CO)NCc1cnc2c(N3CCc4c(-c5ccc6c(c5)OCCO6)cccc43)ncnc2c1 property=pIC50 measurement=7.85

Return reported pIC50; argument: `O=C(O)[C@H]1CCN(Cc2cnc3c(N4CCc5c(-c6ccccc6)cccc54)ncnc3c2)C1`
8.09

Note, next up: `O=C(O)[C@@H]1CCCN1Cc1cnc2c(N3CCc4c(-c5ccc6c(c5)OCCO6)cccc43)ncnc2c1`
7.80

Record: `NS(=O)(=O)NCCNCc1cnc2c(N3CCc4c(-c5ccc6c(c5)OCCO6)cccc43)ncnc2c1`
7.50

Next compound: `CC(=O)NCCNCc1cnc2c(N3CCc4c(-c5ccccc5)cccc43)nccc2c1`
7.07

Proceed to `CC(C)(CO)NCc1cnc2c(N3CCc4c(-c5ccccc5)cccc43)nccc2c1`
7.35

Would you kindly repeat that for `O=C(O)[C@H]1CCCCN1Cc1cnc2c(N3CCc4c(-c5ccccc5)cccc43)ncnc2c1` ?
7.21

// repeat for `O=C(O)[C@@H]1CCCCN1Cc1cnc2c(N3CCc4c(-c5ccccc5)cccc43)ncnc2c1` and report
7.58

====

Entries and their pIC50
tested.target: Programmed cell death protein 1/Programmed cell death 1 ligand 1 (Homo sapiens, UniProt Q15116+Q9NZQ7)
test: Inhibition of PD-1/PD-L1 (unknown origin) protein-protein interaction incubated for 105 mins by HTRF assay
pIC50 (log units): -log10 of the concentration in mol/L.

compound_smiles=CC(C)(CO)NCc1cnc2c(N3CCc4c(-c5ccccc5)cccc43)ncnc2c1 measurement=8.20
compound_smiles=c1ccc(-c2cccc3c2CCN3c2nccc3cc(CNC4CCOCC4)cnc23)cc1 measurement=6.89
compound_smiles=O=C(O)[C@H]1CCN(Cc2cnc3c(N4CCc5c(-c6ccccc6)cccc54)nccc3c2)C1 measurement=7.09
compound_smiles=O=C(O)[C@@H]1CCN(Cc2cnc3c(N4CCc5c(-c6ccccc6)cccc54)ncnc3c2)C1 measurement=8.07
compound_smiles=O[C@H]1CCN(Cc2cnc3c(N4CCc5c(-c6ccccc6)cccc54)ncnc3c2)C1 measurement=7.76

I have this molecule here, `CC(=O)NCCNCc1cnc2c(N3CCc4c(-c5ccc6c(c5)OCCO6)cccc43)ncnc2c1` , and I need its recorded pIC50.
7.86

Please give the result for `O=C(O)[C@@H]1CCN(Cc2cnc3c(N4CCc5c(-c6ccccc6)cccc54)nccc3c2)C1` too.
7.17

Another molecule to check: `OCCNCc1cnc2c(N3CCc4c(-c5ccc6c(c5)OCCO6)cccc43)ncnc2c1`
8.14
